Please respond with reported log10(IC50) for every item in the list.
# TARGET_DESC: G810S mutant RET kinase (Homo sapiens, UniProt P07949, G810S);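 further: HTRF KinEASE-TK kinase assay with recombinant enzyme, 1 h at 22 °C, dual-wavelength ratiometric read-out, percent of control (DMSO-only = 100, pre-quenched reaction = 0)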
# Sequence (P07949 29-1114 G810S): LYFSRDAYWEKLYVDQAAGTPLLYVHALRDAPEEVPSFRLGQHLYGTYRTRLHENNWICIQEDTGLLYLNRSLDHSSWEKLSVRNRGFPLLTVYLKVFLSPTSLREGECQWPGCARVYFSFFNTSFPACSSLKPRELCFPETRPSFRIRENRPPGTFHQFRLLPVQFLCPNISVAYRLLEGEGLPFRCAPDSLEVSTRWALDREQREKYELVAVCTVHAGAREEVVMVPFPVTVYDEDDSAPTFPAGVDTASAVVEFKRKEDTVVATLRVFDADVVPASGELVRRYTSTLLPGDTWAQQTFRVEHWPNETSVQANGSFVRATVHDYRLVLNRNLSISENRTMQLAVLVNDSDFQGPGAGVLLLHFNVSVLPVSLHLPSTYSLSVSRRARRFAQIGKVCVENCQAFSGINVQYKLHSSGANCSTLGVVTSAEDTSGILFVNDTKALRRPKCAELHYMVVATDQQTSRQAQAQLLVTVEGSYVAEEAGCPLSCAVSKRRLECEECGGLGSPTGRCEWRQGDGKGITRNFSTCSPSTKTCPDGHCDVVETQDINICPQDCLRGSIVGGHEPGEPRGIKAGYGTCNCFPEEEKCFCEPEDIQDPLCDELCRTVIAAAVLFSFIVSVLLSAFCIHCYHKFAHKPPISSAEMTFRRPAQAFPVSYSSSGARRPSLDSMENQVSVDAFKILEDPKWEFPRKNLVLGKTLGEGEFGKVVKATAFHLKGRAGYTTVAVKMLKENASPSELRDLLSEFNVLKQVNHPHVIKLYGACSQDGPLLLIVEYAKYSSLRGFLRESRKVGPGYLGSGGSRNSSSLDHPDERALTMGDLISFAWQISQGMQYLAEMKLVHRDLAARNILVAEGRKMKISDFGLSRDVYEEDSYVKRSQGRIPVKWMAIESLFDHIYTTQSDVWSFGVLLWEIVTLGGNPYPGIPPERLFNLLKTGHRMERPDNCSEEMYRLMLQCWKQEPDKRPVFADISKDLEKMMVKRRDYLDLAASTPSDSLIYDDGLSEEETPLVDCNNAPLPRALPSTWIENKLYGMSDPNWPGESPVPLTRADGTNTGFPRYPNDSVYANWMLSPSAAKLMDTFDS
# ASSAY: biochemical
Plainly stated, the numbers are log10 of IC50 given in nM.

Entry under test: C[C@@H](n1c2c(c3c(N)ncnc31)-c1noc(C3CC3)c1[C@H](O)CC2)C(F)(F)F (single isomer, unassigned) [Example 147, 2,2,2-trifluoroacetate] . Its log10(IC50) was 1.97

Data point: CCN1Cc2c(c3c(N)ncnc3n2C(C)C)-c2noc(C3CC3)c2C1=O [Example 1] ; log10(IC50) = 2.07

Measured log10(IC50) of Nc1ncnc2c1c1c(n2-c2ccccc2)CNC(=O)c2c-1noc2C1CC1 [Example 110, 2,2,2-trifluoroacetate] : 2.45

The reported value for CC(n1c2c(c3c(N)ncnc31)-c1noc(C3CC3)c1C(O)CC2)C(F)(F)F (stereo not drawn) [Example 131] in terms of log10(IC50) is 1.26

According to the records, this molecule CC(C)n1c2c(c3c(N)ncnc31)-c1noc(C3CC3)c1C(=O)N(C)C2 [Example 20] displays log10(IC50) of 2.09

Just so you know, measured log10(IC50) for Nc1ncnc2c1c1c(n2[C@H]2C[C@H](CO)C2)CCC(O)c2c-1noc2C1CC1 (stereo partly drawn) [Example 135] came out at 2.36

Recorded result, CC(C)n1c2c(c3c(N)ncnc31)-c1cc3ccc(C(F)(F)F)cc3n1C(=O)NC2 [Example 82] , log10(IC50): 2.91

For record Nc1ncnc2c1c1c(n2C2CCC(O)C2)CCC(O)c2c-1noc2C1CC1 (stereo not drawn) [Example 129] the listed log10(IC50) is 1.28

Recorded log10(IC50) (molecule CC(C)n1c2c(c3c(N)ncnc31)-c1cc3ccc(C(=O)Nc4ccn(CCN5CCOCC5)n4)cc3n1CCC2 [Example 88] ): 2.47
